- Tested on: KB
- test_summary: Antiproliferative activity against human KB cells expressing EGFR and SRC by MTT assay
- Format: functional, cell-based
Please respond with reported pIC50 for every item in the list.
Give bare numbers, as −log10 of the molar value.

molecular_string | pIC50
O=c1oc2cc3ncnc(Nc4ccc(OCc5ccc(Cl)cc5)cc4)c3cc2n1CCCN1CCOCC1 | 4.43

I would be grateful if you could provide pIC50 for each of the following entries.
1. CCOC(=O)c1ccc(Nc2ncnc3cc4oc(=O)n(CCCN5CCOCC5)c4cc23)cc1
2. O=c1oc2cc3ncnc(Nc4ccc(F)c(Cl)c4)c3cc2n1CCCN1CCOCC1

1: 5.22; 2: 5.19

---

- Tested on: KB
- test_summary: Antiproliferative activity against human KB cells expressing EGFR and SRC by MTT assay
- Type: functional, cell-based
Please respond with reported pIC50 for every item in the list.
Numbers only, as −log10 of the molar value.

Known results for compounds:
molecular_string | pIC50
O=c1oc2cc3ncnc(Nc4ccc(OCc5ccccc5)cc4)c3cc2n1CCCN1CCOCC1 | 4.42
Cc1c(OCC(F)(F)F)ccnc1COc1cccc(Nc2ncnc3cc4oc(=O)n(CCCN5CCOCC5)c4cc23)c1 | 4.80
CCOC(=O)c1ccc(O)c(Nc2ncnc3cc4oc(=O)n(CCCN5CCOCC5)c4cc23)c1 | 5.09
O=c1oc2cc3ncnc(Nc4ccc5[nH]ncc5c4)c3cc2n1CCCN1CCOCC1 | 4.73

Attention now turns to another entry.
Quick note, pIC50 for O=c1oc2cc3ncnc(Nc4ccc(OCc5ccc(Cl)cc5)c(Cl)c4)c3cc2n1CCCN1CCOCC1 landed at 6.09

---

- test_target: Proto-oncogene tyrosine-protein kinase Src (Homo sapiens, UniProt P12931)
- Sequence (P12931 2-536 limits assumed): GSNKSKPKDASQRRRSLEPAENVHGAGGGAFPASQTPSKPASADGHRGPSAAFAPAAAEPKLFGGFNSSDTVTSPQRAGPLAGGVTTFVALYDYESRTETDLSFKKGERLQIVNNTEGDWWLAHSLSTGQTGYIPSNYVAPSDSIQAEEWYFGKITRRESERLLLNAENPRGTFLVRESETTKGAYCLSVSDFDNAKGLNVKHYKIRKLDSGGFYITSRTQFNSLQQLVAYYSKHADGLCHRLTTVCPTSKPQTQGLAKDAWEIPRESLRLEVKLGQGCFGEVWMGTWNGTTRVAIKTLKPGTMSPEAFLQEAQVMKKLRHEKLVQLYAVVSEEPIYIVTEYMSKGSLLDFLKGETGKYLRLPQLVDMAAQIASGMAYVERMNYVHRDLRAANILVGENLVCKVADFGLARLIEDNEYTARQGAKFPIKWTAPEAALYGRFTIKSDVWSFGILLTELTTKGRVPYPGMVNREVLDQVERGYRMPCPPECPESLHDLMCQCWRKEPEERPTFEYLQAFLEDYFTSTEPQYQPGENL
readout_label: IC50 (µM)
One number for each entry, in µM.

Known results for compounds:
molecular_string | readout_label | numeric_readout
Cc1ccc(Nc2ncnc3cc4oc(=O)n(CCCN5CCOCC5)c4cc23)cc1 | IC50 | 7.5
O=c1oc2cc3ncnc(Nc4ccc(O)cc4)c3cc2n1CCCN1CCOCC1 | IC50 | 66

Attention now turns to another entry.
Quick note, IC50 for CCOC(=O)c1ccc(Nc2ncnc3cc4oc(=O)n(CCCN5CCOCC5)c4cc23)cc1 landed at 3.1

---

- System: A498
- test_summary: Antiproliferative activity against human A498 cells expressing EGFR and SRC by MTT assay
- Format: functional, cell-based
Please respond with reported IC50 for every item in the list.
Numbers only, in µM.

Known results for compounds:
molecular_string | readout_label | unit_of_measure | numeric_readout
Cc1c(OCC(F)(F)F)ccnc1COc1cccc(Nc2ncnc3cc4oc(=O)n(CCCN5CCOCC5)c4cc23)c1 | IC50 | µM | 35.3
O=c1oc2cc3ncnc(Nc4ccc5[nH]ncc5c4)c3cc2n1CCCN1CCOCC1 | IC50 | µM | 18.7
O=c1oc2cc3ncnc(Nc4ccc(OCc5ccc(Cl)cc5)cc4)c3cc2n1CCCN1CCOCC1 | IC50 | µM | 7.4
CCOC(=O)c1ccc(O)c(Nc2ncnc3cc4oc(=O)n(CCCN5CCOCC5)c4cc23)c1 | IC50 | µM | 15.7
O=c1oc2cc3ncnc(Nc4ccc(OCc5ccc(Cl)cc5)c(Cl)c4)c3cc2n1CCCN1CCOCC1 | IC50 | µM | 3

I would be grateful if you could provide IC50 for each of the following entries.
1. O=c1oc2cc3ncnc(Nc4ccc(F)c(Cl)c4)c3cc2n1CCCN1CCOCC1
2. O=c1oc2cc3ncnc(Nc4ccc(OCc5ccccc5)cc4)c3cc2n1CCCN1CCOCC1
3. CCOC(=O)c1ccc(Nc2ncnc3cc4oc(=O)n(CCCN5CCOCC5)c4cc23)cc1

1: 32; 2: 14.8; 3: 8.8

Hey, just so you know, these numbers are from ChEMBL document CHEMBL2062376.
